Source: PubChem BioAssay AID894

# Potency per record follows
biological target: 15-hydroxyprostaglandin dehydrogenase [NAD(+)] (Homo sapiens); test: qHTS Assay for Inhibitors of HPGD (15-Hydroxyprostaglandin Dehydrogenase); details: purified HPGD, NADH fluorescence kinetic, PGE2 substrate; also: potency is read from the fitted curve at half-maximal effect
Screen size: about 150,000 compounds; about 6,500 (4.3%) were called active. Another 12% or so got no clear call; they are omitted. This is one part of a sample in which actives are shown more often than they occur.

molecule=O=C(NCc1cccs1)c1ccc(Br)o1 assay_system="15-hydroxyprostaglandin dehydrogenase [NAD(+)] (Homo sapiens)" measure_name=Potency reported_result="20 µM (active)"
molecule=CCC(=NCc1ccco1)c1c(O)n(Cc2ccccc2)c(=O)[nH]c1=O assay_system="15-hydroxyprostaglandin dehydrogenase [NAD(+)] (Homo sapiens)" measure_name=Potency reported_result="15.8 µM (active)"
molecule=NCC[Se][Se]CCN assay_system="15-hydroxyprostaglandin dehydrogenase [NAD(+)] (Homo sapiens)" measure_name=Potency reported_result="2.82 µM (active)"
molecule=C=CCSSCC=C assay_system="15-hydroxyprostaglandin dehydrogenase [NAD(+)] (Homo sapiens)" measure_name=Potency reported_result="8.91 µM (active)"
molecule="Cc1cccc2c3c(ccc12)C1=C(C(=O)C3=O)C(C)CO1 (centres undefined)" assay_system="15-hydroxyprostaglandin dehydrogenase [NAD(+)] (Homo sapiens)" measure_name=Potency reported_result="17.8 µM (active)"

Prompt: Can you look up the measured Potency of Cc1cccc(N2C(=O)NC(=O)/C(=C\c3cnn(-c4ccccc4)c3)C2=O)c1 for me?
Response: 10 µM (active)

Prompt: // Potency lookup, key: Cc1cccc(-n2c(C)nc3cc(C(=O)N4CCC5(CC4)OCCO5)ccc32)c1
Response: 14.1 µM (active)

Prompt: Given COC(=O)N(c1ccc(OC)cc1)P1(=S)OCCC(C)O1 (centres undefined) , state its recorded Potency.
Response: 4.47 µM (active)

Prompt: What value of Potency has been recorded for this entry: Cc1cc(-c2n[nH]c(=S)n2-c2ccc(C)c(C)c2)no1
Response: 5.62 µM (active)

----------
A collection of compounds and their measured activity change, negative = inhibition
target: 15-hydroxyprostaglandin dehydrogenase [NAD(+)] (Homo sapiens) (UniProt P15428); assay: qHTS Assay for Inhibitors of HPGD (15-Hydroxyprostaglandin Dehydrogenase); details: purified HPGD, NADH fluorescence kinetic, PGE2 substrate; active compounds read low; as to activity change, negative = inhibition: % is scaled to controls: 0 for no effect and ±100 for the full control effect
Sequence (P15428 whole entry, looked up): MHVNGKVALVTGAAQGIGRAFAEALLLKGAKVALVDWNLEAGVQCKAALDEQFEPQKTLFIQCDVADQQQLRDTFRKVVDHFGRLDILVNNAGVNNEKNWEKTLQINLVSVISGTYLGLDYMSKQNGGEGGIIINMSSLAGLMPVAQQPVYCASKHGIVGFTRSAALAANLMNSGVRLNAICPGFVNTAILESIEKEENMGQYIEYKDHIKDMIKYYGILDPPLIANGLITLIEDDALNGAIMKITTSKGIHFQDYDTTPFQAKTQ
Out of some 150,000 compounds screened, about 6,500 (4.3%) were called active. Another 12% or so got no clear call; they are omitted. The entries come from a sample that favours actives as a whole.
Kindly provide the numeric value in % only, without the unit symbol.

compound="CCC1(c2ccccc2)C(=O)NC(=O)N(C)C1=O (stereo not given)" measure_name="activity change, negative = inhibition" reported_result=-4.89
compound=NCCc1ccc(S(=O)(=O)F)cc1 measure_name="activity change, negative = inhibition" reported_result=-8.88

Prompt: Identify the measured activity change, negative = inhibition of OC(Cn1c2ccccc2c2ccccc21)C[n+]1ccccc1 (stereo not given) for 15-hydroxyprostaglandin dehydrogenase [NAD(+)] (Homo sapiens) (UniProt P15428).
Response: -3.99

Prompt: So what activity change, negative = inhibition did CCOC(=O)c1ncn2c1[C@@H]1CCCN1C(=O)c1cc(OC)ccc1-2 get with 15-hydroxyprostaglandin dehydrogenase [NAD(+)] (Homo sapiens) (UniProt P15428)?
Response: -9.65

Prompt: What measured activity change, negative = inhibition is associated with CCN1C[C@@]2(COC)CC[C@H](OC)[C@]34[C@@H]1[C@]1(OCO[C@@]15C[C@@H](OC)C1C[C@H]3[C@H]5[C@@H]1OC)[C@H](O)[C@@H]24 on 15-hydroxyprostaglandin dehydrogenase [NAD(+)] (Homo sapiens) (UniProt P15428)?
Response: -0.114

----------
Recorded activity change, negative = inhibition values for a group of compounds are listed next.
target: 15-hydroxyprostaglandin dehydrogenase [NAD(+)] (Homo sapiens); experiment: qHTS Assay for Inhibitors of HPGD (15-Hydroxyprostaglandin Dehydrogenase); details: purified HPGD, NADH fluorescence kinetic, PGE2 substrate; active compounds read low; as to activity change, negative = inhibition: % is scaled to controls: 0 for no effect and ±100 for the full control effect
The campaign covered roughly 150,000 compounds. About 6,500 (4.3%) were called active. Another 12% or so got no clear call; they are omitted. This is one part of a sample in which actives are shown more often than they occur.

Some compounds with recorded activity change, negative = inhibition:
compound=CCC(=NCCc1ccccc1)c1c(O)n(C2CCCCC2)c(=O)[nH]c1=O reported_result="-16.1% (inactive)"
compound=CCNC[C@H](O)c1cccc(O)c1 reported_result="-6.69% (inactive)"
compound=CCCCCCCCc1[se]c2ccccc2c1Br reported_result="1.04% (inactive)"
compound=Cc1cccc([C@H](C)c2cnc[nH]2)c1C reported_result="-10.2% (inactive)"
compound=Clc1ccc([C@@H]2C[C@H]3CC[C@@H]2N3)cn1 reported_result="0.221% (inactive)"

Prompt: # lookup: activity change, negative = inhibition of CN(C)[C@@H]1C(=O)C(C(N)=O)=C(O)[C@@]2(O)C(=O)C3=C(O)c4c(O)cccc4[C@@](C)(O)C3CC12 (stereo partly specified)
Response: -24.8% (inactive)

----------
target: 15-hydroxyprostaglandin dehydrogenase [NAD(+)] (Homo sapiens) (UniProt P15428); assay: qHTS Assay for Inhibitors of HPGD (15-Hydroxyprostaglandin Dehydrogenase); details: purified HPGD, NADH fluorescence kinetic, PGE2 substrate; active compounds read low; as to activity change, negative = inhibition: % is scaled to controls: 0 for no effect and ±100 for the full control effect
Among all 150,000 compounds or so, about 6,500 (4.3%) were called active. Another 12% or so got no clear call; they are omitted. Many of the other results were omitted from the sample, so actives are more common in it than they were.
Measured activity change, negative = inhibition values are reported for all entries that follow.
Express it in %; write the number only.

Examples with their reported activity change, negative = inhibition follow.
compound=C/C(=C\C=C/[C@@H](C)C(=O)O)[C@H]1CN[C@H](C(=O)O)[C@@H]1CC(=O)O result_unit=% reported_result=-11.8
compound=Cc1nc2nc(C)c(CCC(=O)N3CCC4(CC3)OCCO4)c(C)n2n1 result_unit=% reported_result=-4.62
compound=O=c1c2ccccc2nc(-c2ccco2)n1-c1ccc(Br)cn1 result_unit=% reported_result=-7.61
compound=CCN1CCN(C(=O)Cc2coc3cc(C)cc(C)c23)CC1 result_unit=% reported_result=-14.1
compound="O=C(O)C1C2CCC(O2)C1C(=O)O (stereo not given)" result_unit=% reported_result=-2.85

Prompt: Give its activity change, negative = inhibition value. Item: C[C@H](Br)C(=O)N[C@H](CO)C(=O)O
Response: -10.5

Prompt: Could you tell me which activity change, negative = inhibition is on file for CCCCC/C=C\C/C=C\C/C=C\C=C\[C@H](CCCC(=O)O)OO ?
Response: -9.41

Prompt: activity change, negative = inhibition lookup needed for Fc1ccc(C(OCCN2CCN(C/C=C\c3ccccc3)CC2)c2ccc(F)cc2)cc1 , thanks.
Response: -13.4

Prompt: Tell me the measured activity change, negative = inhibition of CC(Cl)Cl , please.
Response: -8.77

Prompt: What does the record list as activity change, negative = inhibition for Cc1ccc(N2C(=O)NC(=O)C(CCc3ccncc3)(Cc3cccc(Cl)c3Cl)C2=O)cc1 (stereo not given) ?
Response: -5.28

Prompt: Item O=C(C1CC(=O)N(C2CCCC2)C1)N1CCC2(CC1)OCCO2 (stereo not given) has what recorded activity change, negative = inhibition?
Response: 6.18

Prompt: Return reported activity change, negative = inhibition; argument: CCCCCCCCCCCCCC(=O)O[C@@H]1[C@@H](C)[C@@]2(O)[C@@H](C=C(CO)C[C@]3(O)C(=O)C(C)=C[C@@H]23)[C@@H]2C(C)(C)[C@]12OC(C)=O
Response: -19

Prompt: // query activity change, negative = inhibition value for entry CC(C)(C)c1ccc(CN2C(=O)CN=C(c3ccccc3)c3ccccc32)cc1
Response: -17.9

Prompt: Sample CCC(C)C(=O)O[C@@H]1C[C@@]2(C)C(c3ccoc3)OC(=O)CC23OC2(C)O[C@@]14[C@@]1(C)C(CC(=O)OC)C5(C)CC1(O)C(O)(C5OC(=O)C1(C)OC1C)C(OC(C)=O)[C@@]34O2 (stereo not given in full) — what was its activity change, negative = inhibition?
Response: -23.2

Prompt: Value lookup for activity change, negative = inhibition; key = C1CC[C@H]([C@@]23C[C@H](C[C@H]4CCCN[C@H]42)[C@@H]2CCCCN2C3)NC1
Response: -4.36

----------
biological target: 15-hydroxyprostaglandin dehydrogenase [NAD(+)] (Homo sapiens) (UniProt P15428); assay: qHTS Assay for Inhibitors of HPGD (15-Hydroxyprostaglandin Dehydrogenase); conditions: purified HPGD, NADH fluorescence kinetic, PGE2 substrate; active compounds read low; as to activity change, negative = inhibition: % is scaled to controls: 0 for no effect and ±100 for the full control effect
Among all 150,000 compounds or so, about 6,500 (4.3%) were called active. Inconclusive results (about 12%) are left out. The sample as a whole holds a higher share of actives than the screen did.
activity change, negative = inhibition values by entry
Response body: numeric value in %, unit text excluded.

Sample records with activity change, negative = inhibition:
molecule=Nc1ccc([N+](=O)[O-])cc1 result_unit=% reported_result=-4.46
molecule=O=c1oc2ccccc2c(O)c1C(c1ccccc1O)c1c(O)c2ccccc2oc1=O result_unit=% reported_result=-2.8

Prompt: I would be grateful if you could share the reported activity change, negative = inhibition for CC(C)N(CC#CCC1(O)c2ccccc2-c2ccccc21)C(C)C .
Response: -8.59
